- ASSAY_COMMENT: endothelial E-selectin expression blockers – imaging, HUVEC, immunofluorescence, MLSMR starter and 10KST1 sets, primary screen (AID 487);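 note: 100% = median nuclei count of all wells on the same plate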
- TEST_PARAMETERS: HUVEC TNFalpha-induced E-selectin immunofluorescence imaging, at 2 µM; measured here: cell number, toxicity
VALUE_KIND: nuclei count

Answered examples (3):
COMPOUND: CCn1c(SCC(=O)Nc2ccc3c(c2)OCO3)nc2c(c1=O)SC(C)C2 (configuration not stated)
VALUE_KIND: nuclei count
REPORTED_MEASUREMENT: 95.3%
--
COMPOUND: O=C1c2ccccc2-c2ccc(C(=O)N3CCOCC3)cc21
VALUE_KIND: nuclei count
REPORTED_MEASUREMENT: 101%
--
COMPOUND: O=C(NCCCN1CCN(c2cccc(Cl)c2)CC1)c1ccc(N2CCCC2=O)cc1
VALUE_KIND: nuclei count
REPORTED_MEASUREMENT: 105%

The compound listed as COC(=O)C1=C(C)OC(N)=C(C#N)C1c1ccccc1 (configuration not stated) has a reported nuclei count of 116%

The compound listed as O=C(CN1C(=O)CC(c2ccco2)Sc2ccccc21)Nc1ccc2c(c1)OCCO2 (configuration not stated) has a reported nuclei count of 105%

The compound listed as COc1ccc(-n2nc(C(=O)Nc3ccc4c(c3)OCO4)c3c4ccccc4n(C)c3c2=O)cc1 has a reported nuclei count of 97.1%

---

- ASSAY_TARGET: Voltage-gated potassium channel subunit beta-2 (Rattus norvegicus) (UniProt P62483)
- Sequence (P62483 whole entry, looked up): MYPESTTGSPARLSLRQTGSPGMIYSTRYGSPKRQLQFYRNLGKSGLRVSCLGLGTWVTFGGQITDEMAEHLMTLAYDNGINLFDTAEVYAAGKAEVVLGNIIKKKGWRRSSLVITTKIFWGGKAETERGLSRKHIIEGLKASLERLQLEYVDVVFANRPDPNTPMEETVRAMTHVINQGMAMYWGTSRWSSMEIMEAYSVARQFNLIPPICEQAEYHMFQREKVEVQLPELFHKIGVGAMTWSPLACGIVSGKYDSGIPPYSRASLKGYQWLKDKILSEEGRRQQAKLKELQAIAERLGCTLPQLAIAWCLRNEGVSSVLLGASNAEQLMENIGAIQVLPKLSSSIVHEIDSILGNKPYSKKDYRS
- ASSAY_COMMENT: enhancers of rat Kvbeta2 NADPH turnover – biochemical, NADPH fluorescence, primary screen (AID 623);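 note: fluorescence intensity change per second fitted from 20 to 320 s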
- TEST_PARAMETERS: Recombinant KvBeta, NADPH fluorescence decrease slope, 10 min; at 10 µM; stronger effect = lower value
VALUE_KIND: NADPH fluorescence slope
Lab note: record the figure alone, no unit after it.

COMPOUND: COc1ccc(OC)c(NC(=O)CSc2ncccc2C(=O)O)c1
NADPH fluorescence slope: -0.000268
//
COMPOUND: CC(C)CNS(=O)(=O)c1ccc(CCC(=O)NCc2ccco2)cc1
NADPH fluorescence slope: 1.9e-05
//
COMPOUND: CCCC(=O)Nc1ccc(NC(=O)c2ccccc2OC)cn1
NADPH fluorescence slope: 7.2e-05
//
COMPOUND: N#CCC(=O)Nc1ncn(Cc2ccccc2Cl)n1
NADPH fluorescence slope: 1.5e-06
//
COMPOUND: Cc1cc(C)c2cc3c(ccn3C3OC[C@H](O)[C@H](O)[C@H]3O)cc2n1 (stereo partly specified)
NADPH fluorescence slope: -2.8e-05

The compound listed as CCOCCCNC(=O)C1CCC(=O)N1CCc1ccccc1 (stereo unspecified) has a reported NADPH fluorescence slope of -6.9e-06

The compound listed as Nc1nc2sc3c(c2c(=O)s1)CCCC3 has a reported NADPH fluorescence slope of -0.0002

The compound listed as CCOc1ccc2[nH]c(=O)c(CN(CCOC)C(=O)N3CCOCC3)cc2c1 has a reported NADPH fluorescence slope of 3.3e-05

The compound listed as O=C(NCc1ccc2c(c1)OCO2)C1CCCN(S(=O)(=O)c2cccc3cccnc23)C1 (stereo unspecified) has a reported NADPH fluorescence slope of -6.1e-05

The compound listed as CCOC(=O)c1sc2nc(NC(=O)COc3ccccc3)sc2c1C has a reported NADPH fluorescence slope of -1.3e-05

The compound listed as COc1ccccc1OCc1ccc(C(=O)N2CCN(C(=O)c3ccco3)CC2)cc1 has a reported NADPH fluorescence slope of -3e-05

---

- ASSAY_COMMENT: inhibitors of TNFa-induced NFkB p65 translocation, primary screen, imaging, HUVEC, MLSMR starter and 10KST1 sets (AID 438);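 note: compound added about 3h40 before a 20 min TNFalpha stimulation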
- TEST_PARAMETERS: HUVEC TNFa-induced p65 nuclear translocation; measured here: nuclei count (cytotoxicity indicator), at 2.08 µM
Respond with label 1 for cell count values of 400 and above, label 0 for values below.

COMPOUND: O=C1c2ccccc2C(Nc2ccc3c(c2)OCCO3)N1Cc1ccco1 (configuration not stated)
CLASS: label 1

COMPOUND: CCC(=O)N1C(=O)CCN(C(C)=O)c2ccccc21
CLASS: label 1

COMPOUND: Cc1ccc(F)cc1NC(=O)C1CCCN(c2ncccn2)C1 (configuration not stated)
CLASS: label 1

COMPOUND: CC(Oc1ccccc1)C(=O)Nc1ccc(S(=O)(=O)NCC2CCCO2)cc1 (configuration not stated)
CLASS: label 0

COMPOUND: CCn1cc(C(=O)OCc2ccc(F)cc2)c(=O)c2ccc(C)nc21
CLASS: label 0

Assess whether reported cell count for CC(=O)NCCc1ccc(S(=O)(=O)NCc2ccc3c(c2)OCO3)cc1 sits at 400 or higher.
label 1

Assess whether reported cell count for Cc1cc(Cl)c(S(=O)(=O)N2CCN(c3ccc(F)cc3)CC2)cc1OCC(N)=O sits at 400 or higher.
label 0

Assess whether reported cell count for O=C(CN1CCOCC1)Nc1cccc(C(=O)Nc2cccc(C(F)(F)F)c2)c1 sits at 400 or higher.
label 0

Assess whether reported cell count for CSc1nc2c(ccc3ccccc32)o1 sits at 400 or higher.
label 1

Assess whether reported cell count for COC(=O)C1=C(C)NC(C)=C(C(=O)OC)C1c1cc2cc(C)ccc2[nH]c1=O sits at 400 or higher.
label 1

Assess whether reported cell count for COc1ccc(N2CCC(CNS(=O)(=O)c3cccc(C(F)(F)F)c3)C2)cc1 (configuration not stated) sits at 400 or higher.
label 0

Assess whether reported cell count for O=C1c2ccccc2C(=O)N1CCCn1nnc(-c2ccc(N3CCOCC3)cc2)n1 sits at 400 or higher.
label 0

---

- ASSAY_COMMENT: reduction of polyQ htt aggregates in cells – imaging, exon1htt(103Q)mCFP cells, high-content imaging, primary screen (AID 483);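 note: compound exposure lasted 3 days before fixation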
- TEST_PARAMETERS: exon1htt(103Q)mCFP cell line, aggregate imaging, at 2 µM; stronger effect = higher value
VALUE_KIND: inhibition of aggregation (%)
Return type: number; implicit unit %.

Answered examples (2):
MOLECULE: Cc1nc2ccccc2c(=O)n1/N=C/c1ccncc1
REPORTED_MEASUREMENT: -10.1
//
MOLECULE: CN1C(=O)C(O)(CC(=O)c2ccc3c(c2)OCO3)c2ccccc21 (stereo unspecified)
REPORTED_MEASUREMENT: -7.9

The molecule listed as CC(=O)N1CCN(c2ccc(NC(=O)c3ccc(C(C)(C)C)cc3)cc2)CC1 has a reported inhibition of aggregation of -7.5

The molecule listed as COc1ccccc1S(=O)(=O)Cc1ccc(C(=O)N2CCOCC2)o1 has a reported inhibition of aggregation of 29

The molecule listed as Cn1c(=O)c2c(nc(SCCCC#N)n2Cc2c(F)cccc2Cl)n(C)c1=O has a reported inhibition of aggregation of 9.8

The molecule listed as COc1cccc(-c2nc(-c3ccc(NC(=O)Cc4ccccc4OC)cc3)no2)c1 has a reported inhibition of aggregation of -12.3

The molecule listed as Cc1onc(-c2c(F)cccc2Cl)c1C(=O)Nc1nc2c(s1)CCCC2 has a reported inhibition of aggregation of 14.6

---

- ASSAY_TARGET: Alpha-2C adrenergic receptor (Homo sapiens)
- ASSAY_COMMENT: compounds altering alpha2C-coupled GIRK flux – cell-based, HEK293 alpha2C/GIRK1/2, thallium flux, primary screen (AID 624);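 note: slope of fluorescence ratio to pre-addition baseline per second over 15 to 24 s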
- TEST_PARAMETERS: thallium flux BTC fluorescence, at 10 µM, actives lie on both sides
VALUE_KIND: slope
Lab note: record the figure alone, no unit after it.

Answered examples (2):
COMPOUND: O=c1[nH]c2cc3c(cc2cc1C(c1nnnn1Cc1ccccc1)N1CCCc2ccccc21)OCO3 (stereo not drawn)
slope: 0.0031

COMPOUND: N#Cc1nc(COc2ccccc2Cl)oc1N1CCCCCC1
slope: 0.00512

With those in mind, consider the next compound.
The compound listed as CCOC(=O)c1ccccc1NC1CC(=O)N(c2ccccc2C)C1=O (stereo not drawn) has a reported slope of 0.00569

---

- ASSAY_COMMENT: blockers of RIG-like receptor reporter activation – cell-based, Sendai virus stimulus, luciferase, 10K MLSCN set, TLR/RLR signaling modifier project, primary screen (AID 602276);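 note: firefly luciferase from ISG56 promoter only with Renilla not read in this screen; 0% = Sendai virus plus DMSO and 100% = medium plus DMSO without virus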
- TEST_PARAMETERS: HEK293 RL24 IRF3 luciferase reporter, at 10 µM, stronger effect = higher value
This listing pairs compounds with measured inhibition.
Return type: number; implicit unit %.

COMPOUND: CC(=O)Nc1sc2c(c1C#N)CCCCC2
RESULT_UNITS: %
REPORTED_MEASUREMENT: -1.89

COMPOUND: CCOc1ccccc1N1CC(O)=C(c2nc3ccccc3s2)C1=N
RESULT_UNITS: %
REPORTED_MEASUREMENT: -19.5

COMPOUND: O=C(Nc1nnc(SCC(=O)N2CCCCC2)s1)C1CCCCC1
RESULT_UNITS: %
REPORTED_MEASUREMENT: 9.52

COMPOUND: O=C(COC(=O)c1ccccc1C(=O)c1ccccc1)c1ccco1
RESULT_UNITS: %
REPORTED_MEASUREMENT: -5.98

COMPOUND: O=c1/c(=C/c2ccco2)sc2nc(-c3ccccc3Br)nn12
RESULT_UNITS: %
REPORTED_MEASUREMENT: 16.2

COMPOUND: Cc1ccc(S(=O)(=O)C2(C(=O)NC3CCCC3)CC2)cc1
RESULT_UNITS: %
REPORTED_MEASUREMENT: 13.7

The compound listed as COc1cccc(Nc2nc(=O)[nH]nc2C)c1 has a reported inhibition of 16.9

The compound listed as O=C(Nc1nnc(C2CCCC2)s1)C1CCN(S(=O)(=O)c2ccc(Cl)cc2)CC1 has a reported inhibition of 13.4

The compound listed as O=C(Nc1nnc(C2CCCCC2)s1)c1cccs1 has a reported inhibition of -37.9

The compound listed as CC1CN(c2nc3ccccc3nc2C(C#N)C(=O)OC2CCCCC2)CC(C)O1 (centres undefined) has a reported inhibition of 15.1

The compound listed as CCOC(=O)c1nnc2cc(-c3ccc(Br)cc3)nn2c1C has a reported inhibition of -72.6

The compound listed as COC(=O)[C@H](CCSC)NC(=O)Nc1cc(C)ccc1C has a reported inhibition of 11.7

The compound listed as CC(C)(C)n1nnnc1C(c1cccs1)N1CCN(Cc2ccccc2)CC1 (centres undefined) has a reported inhibition of 15.9

The compound listed as CCCn1c2ccccc2c2nnc(SCC(=O)Nc3ncccn3)nc21 has a reported inhibition of 12.2

The compound listed as COc1ccc(-c2cc(C(=O)Nc3ccc(C)cc3)no2)cc1 has a reported inhibition of -20.2

The compound listed as N#Cc1c(N)oc(-c2cccs2)c1-c1cccs1 has a reported inhibition of -45.9
